PROTOCOL DESCRIPTION: NCI Yeast Anticancer Drug Screen. Data for the rad14 strain (AID 159);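 note: 0% = growth of vehicle-treated control cultures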
SETTINGS: S. cerevisiae rad14 strain growth inhibition; at 100.0 µM; active compounds read high
This is part of a sample that, as a whole, favours compounds with a hit. Of some 79,000 tested, about 15% had one in any assay.
PARAMETER MEASURED: growth inhibition (%)

O=C(c1ccccc1)C1C(c2ccccc2[N+](=O)[O-])N1C1CCCCC1 (configuration not stated) ... 64
O=C(O)CCCc1cc(I)c(N(CCCl)CCCl)c(I)c1 ... 95
c1ccc(N=c2nc(N3CCOCC3)ss2)cc1 ... 99
COc1cc(C2c3cc4c(cc3[C@@H](Nc3ccc(N)cc3)C3COC(=O)[C@H]23)OCO4)cc(OC)c1O (some centres not stated) ... 92
Cn1cc(NC(=O)c2cc(NC(=O)CN=C(N)N)cn2C)cc1C(=O)NCCC(=N)N ... 98
Nc1ccc(Cl)cc1C(=O)c1ccccc1 ... 97
CC1=C2C(=C[C@@](C)(CO)[C@@H]2O)C(=O)[C@](C)(O)C12CC2 ... 41
[N-]=[N+]=C1C(Cl)=C(Cl)C(Cl)=C1Cl ... 99
COC1CC(CC2CCC(C)C(C(C)C(=O)O)O2)OC2(OC(C)(C3CCC(C)(C4OC(C5OC(O)(CO)C(C)CC5C)CC4C)O3)CC2C)C1C (configuration not stated) ... 96
Cc1nc2ccccc2cc1C[N+]12CN3CN(CN(C3)C1)C2 ... 47
COc1cc2ccccc2c2cc([N+](=O)[O-])oc12 ... 93
Nc1nc(N)c(-c2ccc(Cl)c(Cl)c2)c(CP(Cl)(Cl)(Cl)Br)n1 ... 54
COC(=O)C1=C(C(=O)OC)SC2(S1)C(C(=O)OC)=C(C(=O)OC)Sc1c2ssc1=O ... 92
C/C(CCl)=N/NC1=NC(c2ccccc2Cl)P(=O)(NCCCNP2(=O)SC(N/N=C(/C)CCl)=NC2c2ccccc2Cl)S1 (configuration not stated) ... 5
CN(C)CCC(C(=O)C(Br)Br)(c1ccccc1)c1ccccc1 ... 99
CCCCCNC(=O)c1c(O)[nH]c(=S)[nH]c1=O ... 96
O=S(=O)(O)/C(=C\c1ccccc1)c1ccccc1 (tested in a mixture with another compound) ... 3
N#CC(C#N)=Cc1ccc(C#N)cc1 ... 16
CCC1(O)C(=O)OCc2c1cc1n(c2=O)Cc2c-1nc1ccccc1c2OC (configuration not stated) ... 15
CCC1(O)C(=O)OCc2c1cc1n(c2=O)Cc2cc3cc(Cl)ccc3nc2-1 (configuration not stated) ... 69
COc1cc([C@@H]2c3cc4c(cc3C[C@@H]3COC(=O)C32)OCO4)cc(OC)c1O (some centres not stated) ... 93
C/C(=N\N=C(N)N)C(CN1CCOCC1)C(c1ccccc1)c1c(O)c2ccccc2oc1=O (configuration not stated) ... 93
NC1=NCC(c2ccc(Cl)cc2)O1 (configuration not stated) ... 52
NCCc1ccc(OCc2ccccc2)c(OCc2ccccc2)c1 ... 97
c1cc2c(cc1C1OC[C@H]3[C@@H](c4ccc5c(c4)OCO5)OC[C@@H]13)OCO2 (some centres not stated) ... 28
Cc1cc[n+](C2=C(Nc3cccc(C(F)(F)F)c3)C(=O)c3ccccc3C2=O)cc1 ... 14
C[C@@]12CCC(=O)C=C1CC[C@H]1C2=CC[C@]2(C)C1CC[C@@]2(C)O (some centres not stated) ... 92
Nc1nc(N)c2c(Cl)c(CNc3ccc(C(=O)NC(CC(=O)O)C(=O)O)cc3)ccc2n1 (configuration not stated) ... 78
C=C[C@H]1CN2CC[C@H]1C[C@@H]2[C@@H](O)c1ccnc2ccccc12 ... 1
O=C(/C=C(\c1ccccc1)N1CC1)c1ccccc1 ... 99
CC1=C[C@H]2O[C@@H]3C[C@H]4OC(=O)/C=C\C=C\C(C(C)O)OCC(O)C(C)CC(=O)OC[C@@]2(C[C@@H]1O)[C@]4(C)[C@@]31CO1 (some centres not stated) ... 97
CC(Cc1ccccc1)N(C)Cc1nc(C2CCC([N+](=O)[O-])O2)no1 (configuration not stated) ... 93
COC(=O)C(F)C(Br)C(=O)OC (configuration not stated) ... 96
C[C@]12CCc3nonc3C1CC[C@@H]1C2CC[C@]2(C)C(=O)CCC12 (some centres not stated) ... 60
O=C1NC(=S)NC(=O)C1=Cc1ccc([N+](=O)[O-])o1 ... 36
CC1CC(C)CC(C)C(O)/C(C#N)=C/C=C/CC(C2CCCC2C(=O)O)OC(=O)CC(O)C(C)C1 (configuration not stated) ... 98
Cn1cnc(N)c1C(=N)[Se] ... 94
O=Cc1ccc(C(F)(F)F)cc1.[C-]#[O+].[C-]#[O+].[C-]#[O+].[Cr] ... 30
CC1CN1C1=C(Cl)C(=O)C(N2CC2C)=C(Cl)C1=O (configuration not stated) ... 98
O=c1oc2ccccc2c(O)c1C(c1ccc2c(c1)Cc1ccccc1-2)c1c(O)c2ccccc2oc1=O ... 98
Nc1nc(-c2ccccc2)c(-c2ccccc2)[se]1 ... 28
Oc1cccnc1[Se] ... 99
